B1: Cold shock protein CspB, residues 1 to 66; numbered along this chain, P41016 (parent)
chain: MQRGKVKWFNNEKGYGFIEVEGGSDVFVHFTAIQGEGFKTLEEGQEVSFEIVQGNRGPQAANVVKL

Variants of: B1
Assay: abundance fitness (aPCA) (normalised: wild type 0, dead -1); higher = more abundant; growth selection in yeast, the domain comes from the species named
Settings: Bacillus caldolyticus
Exercise: state measured abundance fitness for each of the variants provided.

Please report the recorded abundance fitness for `K5Y` .
-0.072

Look at this variant and give its reported abundance fitness. `V6G`
-0.452

Recorded abundance fitness of `Y15R` , please.
-0.227

Given the variant `H29A` , what is its reported abundance fitness?
-0.532

Requested read-out: abundance fitness. Entry: `Q2Y`
0.003

Requested read-out: abundance fitness. Entry: `K39H`
-0.08

Would you mind telling me what abundance fitness value was observed for `D25G` ?
-0.257

Any idea what abundance fitness was measured for `F38Y` ?
-0.009

So what's the measured abundance fitness for this one? `S24N`
0.004

Give the measured abundance fitness of `V20S` .
-0.011

Could you tell me which abundance fitness is on file for `E12Q` ?
0.017
